System: PC-3
assay summary: NCI tumour cell line growth inhibition, 48 h
Active and inactive are the calls of the source. No stated cut-off is given here; in the data, active = GI50 up to about 1.1 µM and inactive = higher.
recorded metric: GI50

Would you kindly share the measured GI50 for "COc1cccc(/N=C/c2cc3cc(Br)ccc3nc2Cl)c1" ?
8.67 µM (inactive)

Would you kindly share the measured GI50 for "O=C1c2ccccc2-c2ccc(/N=N/c3c(O)ccc4ccccc34)cc21" ?
> 100 µM (inactive)

Would you kindly share the measured GI50 for "CC(C)=C[C@@H]1C[C@H](n2cc(C)c(=O)[nH]c2=O)ON1CCO" ?
> 100 µM (inactive)

Would you kindly share the measured GI50 for "CCOC(=O)c1cc(Br)c(-c2onc(C)c2Br)n1C" ?
35.3 µM (inactive)

Would you kindly share the measured GI50 for CC(C)(C)OC(=O)N1CC(O)O[C@H](c2ccccc2)[C@@H]1c1ccccc1 (some centres undefined) ?
14.7 µM (inactive)

Would you kindly share the measured GI50 for "Cc1ccc(C2=Nc3cc(C)c(Cl)cc3S(=O)(=O)NN2)cc1" ?
> 100 µM (inactive)

Would you kindly share the measured GI50 for CCC(C)C1=C(OC(C)=O)[N+]2([O-])Oc3ccc(-c4c(OC(C)=O)c(OC(C)=O)c(-c5ccc(OC(C)=O)cc5)c(OC(C)=O)c4OC(C)=O)cc3OC2(C(C)CC)C(=O)N1OC(C)=O (centres undefined) ?
22.5 µM (inactive)

Would you kindly share the measured GI50 for CC(C)(O)C1OCC(C2CCC3(C)C4=CCC5C(C)(C)C(O)CCC5(C)C4CCC23C)CC1O (centres undefined) ?
10.5 µM (inactive)

Would you kindly share the measured GI50 for "O=C(O)CO/N=C1/C(=C2/C(=O)Nc3ccccc32)Nc2ccccc21" ?
33.9 µM (inactive)

----------
Tested on: SK-MEL-2
assay summary: NCI tumour cell line growth inhibition, 48 h
Calls of active or inactive are those of the source. No stated cut-off is given here; in the data, active = GI50 up to about 1.1 µM and inactive = higher.
recorded metric: GI50

Would you kindly share the measured GI50 for "C=CCN(c1cc(OC)c2[nH]cc(C)c2c1[N+](=O)[O-])S(C)(=O)=O" ?
> 100 µM (inactive)

Would you kindly share the measured GI50 for "CN1C(=O)CC(=O)N1/C(=C/c1ccccc1)c1ccccc1" ?
38.5 µM (inactive)

Would you kindly share the measured GI50 for "COc1ccc(/C=C/c2nccc3ccccc23)cc1OC" ?
> 10 µM (inactive)

Would you kindly share the measured GI50 for "CCC1(CC)C(=O)CC[C@@]2(C)C1=CC[C@H]1[C@@H]3CC[C@H](O)[C@@]3(C)CC[C@@H]12" ?
79.3 µM (inactive)

Would you kindly share the measured GI50 for "C=C1CCCCCCCCC/C=C/1SCCCSC" ?
> 100 µM (inactive)

----------
Tested on: CCRF-CEM
assay summary: NCI tumour cell line growth inhibition, 48 h
Activity calls are given as the source filed them. Cut-off read from the data, not from the text of the source: active = GI50 up to about 1.1 µM and inactive = higher.
Answer each item with its documented GI50.

Would you kindly share the measured GI50 for CN(C)CCC1(C2=CCCC2)CC/C(=C\c2ccc(Cl)cc2)C1=O (configuration not stated) ?
2.38 µM (inactive)

Would you kindly share the measured GI50 for Cc1ccc(NC(=O)/C(=N/NC(=O)CC#N)C2C(=O)N(c3ccccc3)N=C2N)cc1C (configuration not stated) ?
> 100 µM (inactive)

Would you kindly share the measured GI50 for "CCN(c1cccc(NC(=S)Nc2ccccc2N(CC)c2cc(-c3ccccc3)no2)c1)c1cc(-c2ccccc2)no1" ?
> 100 µM (inactive)

Would you kindly share the measured GI50 for "CCOC(=N)CC(=O)c1ccccc1" ?
> 100 µM (inactive)

Would you kindly share the measured GI50 for "COc1ccc(C(=C2C(=O)N(c3ccccc3)C(=O)C2=C(C)C)c2ccc(OC)cc2)cc1" ?
0.546 µM (active)

Would you kindly share the measured GI50 for CCOC(=O)CC[C@@H](NC(=O)c1ccc(N[C@@H]2c3cc4c(cc3C(c3cc(OC)c(O)c(OC)c3)C3C(=O)OC[C@@H]32)OCO4)cc1)C(=O)OCC (some centres not stated) ?
0.00525 µM (active)

Would you kindly share the measured GI50 for "C=C(CS(=O)(=O)c1ccccc1)[P+](c1ccccc1)(c1ccccc1)c1ccccc1" ?
5.22 µM (inactive)

Would you kindly share the measured GI50 for "O=C(O)CNC(=O)c1ccc([As](=O)(O)O)cc1" ?
> 100 µM (inactive)

Would you kindly share the measured GI50 for "CC(C)(C)c1cc(C(O)(C(=O)O)C(=O)O)cc(C(C)(C)C)c1O" ?
> 100 µM (inactive)

Would you kindly share the measured GI50 for "COC(=O)CCCc1ccc2c(c1)CC1(Cc3ccccc3C1)C2" ?
29.6 µM (inactive)

Would you kindly share the measured GI50 for CC(NNC(=O)c1ccncc1)c1ccc(Cl)cc1Cl (configuration not stated) ?
49.4 µM (inactive)

Would you kindly share the measured GI50 for "CCOc1c2ccsc2c(OCC)c2ccsc12" ?
3.77 µM (inactive)

Would you kindly share the measured GI50 for "O=C(c1ccc2ccccc2c1)N(Cc1cccnc1)C(=S)N(Cc1cccnc1)C(=O)c1ccc2ccccc2c1" ?
60.7 µM (inactive)

Would you kindly share the measured GI50 for "CCc1cc(CCC(=O)Nc2ccccc2[N+](=O)[O-])nc(S)n1" ?
> 100 µM (inactive)

Would you kindly share the measured GI50 for CC(C)(O)C1OCC(C2CCC3(C)C4=CCC5C(C)(C)C(O)CCC5(C)C4CCC23C)CC1O (configuration not stated) ?
26.4 µM (inactive)

Would you kindly share the measured GI50 for "COc1ccc(/C=C2/C(=O)N(C(=O)c3ccc(Cl)cc3)N=C2C)cc1OC" ?
> 100 µM (inactive)

Would you kindly share the measured GI50 for "COc1ccccc1N1C(=O)/C(=C/c2ccc(N(CCC#N)CCC#N)cc2C)N=C1c1cc([N+](=O)[O-])ccc1Cl" ?
> 100 µM (inactive)

Would you kindly share the measured GI50 for "O=C1c2ccccc2-c2ccc(/N=N/c3c(O)ccc4ccccc34)cc21" ?
15.4 µM (inactive)

Would you kindly share the measured GI50 for "Nc1nc(N)c2nn(-c3ccc(C(=O)O)cc3)nc2n1" ?
> 100 µM (inactive)

Would you kindly share the measured GI50 for C=C1C2CCC3(CCC4C5(C)CCCC4(C=[N+](CCO)C5)C3C2)C1O (configuration not stated) ?
> 100 µM (inactive)

Would you kindly share the measured GI50 for "O=C(O)c1cc(/C=C/c2ccc(O)c(O)c2)ccc1O" ?
24.5 µM (inactive)

Would you kindly share the measured GI50 for COC(=O)C(Cc1ccccc1)/N=C/c1c(O)c(O)c(C(C)C)c2cc(C)c(-c3c(C)cc4c(C(C)C)c(O)c(O)c(/C=N/C(Cc5ccccc5)C(=O)OC)c4c3O)c(O)c12 (configuration not stated) ?
7.82 µM (inactive)

Would you kindly share the measured GI50 for CCN(CC)CCN1C(=O)CC2[C@@H]3CCc4cc(OC)ccc4C3CC[C@]2(C)C1=O (some centres not stated) ?
18.8 µM (inactive)

Would you kindly share the measured GI50 for "COc1ccc(/C=C/c2nccc3ccccc23)cc1OC" ?
6.52 µM (inactive)

Would you kindly share the measured GI50 for "O/N=C1\CCc2cc3c(cc21)CCC3" ?
> 100 µM (inactive)

Would you kindly share the measured GI50 for "N=C1/C(=C/c2ccccc2)C(=O)N=C2SC=NN12" ?
> 100 µM (inactive)

Would you kindly share the measured GI50 for "O=[N+]([O-])c1cc(-c2nnc(C34CC5CC(CC(C5)C3)C4)o2)cc([N+](=O)[O-])c1" ?
> 100 µM (inactive)

Would you kindly share the measured GI50 for "N=C(N)c1ccc(/N=N\c2c(O)ccc3c2[nH]c2ccccc23)cc1" ?
0.25 µM (active)

Would you kindly share the measured GI50 for Cc1c2c(n(CCc3ccc(Cl)cc3)c1C)NC(c1ccccc1)C(C#N)S2(=O)=O (configuration not stated) ?
2.08 µM (inactive)

Would you kindly share the measured GI50 for O=C(C1OC1c1ccc(Br)cc1O)C12CC3CC(CC(C3)C1)C2 (configuration not stated) ?
23.5 µM (inactive)

Would you kindly share the measured GI50 for "COc1cccc(SSc2cccc(OC)c2C(=O)O)c1C(=O)O" ?
> 100 µM (inactive)

Would you kindly share the measured GI50 for Cn1c(=O)n2n(c1=O)C1C(=CC2)C2C=CC1n1c(=O)n(C)c(=O)n12 (configuration not stated) ?
> 100 µM (inactive)

Would you kindly share the measured GI50 for "CC(=C(c1ccccc1)c1ccccc1)N1C(=O)CC(=O)N1C" ?
40 µM (inactive)

Would you kindly share the measured GI50 for CC(C)(C)OC(=O)NC1CC=CCC1NC(=O)OC(C)(C)C (configuration not stated) ?
> 100 µM (inactive)

Would you kindly share the measured GI50 for "COC(=O)/C=C1\C(=O)N(C(C)=O)c2ccccc21" ?
2.97 µM (inactive)

Would you kindly share the measured GI50 for CC(C)C(C=O)C(O)(C(F)(F)F)C(F)(F)F (configuration not stated) ?
> 10 µM (inactive)

Would you kindly share the measured GI50 for C=CC1(c2ccccc2Cl)N/C(=C/OCC)CO1 (configuration not stated) ?
> 100 µM (inactive)

Would you kindly share the measured GI50 for CN1CCOC1(C)c1ccccc1 (configuration not stated) ?
> 100 µM (inactive)

Would you kindly share the measured GI50 for "NC(=O)c1ccccc1[N+](=O)[O-]" ?
> 10 µM (inactive)

Would you kindly share the measured GI50 for CC(=O)N1C(c2[nH]c3ccccc3c2Cc2ccccc2)CCN1c1ccccc1 (configuration not stated) ?
3.66 µM (inactive)

Would you kindly share the measured GI50 for "NC(=O)c1nnn(-c2ccccc2)c1O" ?
> 100 µM (inactive)

Would you kindly share the measured GI50 for CCOC(=O)C(NCc1cccc(C(F)(F)F)c1)(NC(=O)CC)C(F)(F)F (configuration not stated) ?
> 100 µM (inactive)
